target_of_assay: CLK1 (Homo sapiens, UniProt P49759)
Sequence (P49759 whole entry): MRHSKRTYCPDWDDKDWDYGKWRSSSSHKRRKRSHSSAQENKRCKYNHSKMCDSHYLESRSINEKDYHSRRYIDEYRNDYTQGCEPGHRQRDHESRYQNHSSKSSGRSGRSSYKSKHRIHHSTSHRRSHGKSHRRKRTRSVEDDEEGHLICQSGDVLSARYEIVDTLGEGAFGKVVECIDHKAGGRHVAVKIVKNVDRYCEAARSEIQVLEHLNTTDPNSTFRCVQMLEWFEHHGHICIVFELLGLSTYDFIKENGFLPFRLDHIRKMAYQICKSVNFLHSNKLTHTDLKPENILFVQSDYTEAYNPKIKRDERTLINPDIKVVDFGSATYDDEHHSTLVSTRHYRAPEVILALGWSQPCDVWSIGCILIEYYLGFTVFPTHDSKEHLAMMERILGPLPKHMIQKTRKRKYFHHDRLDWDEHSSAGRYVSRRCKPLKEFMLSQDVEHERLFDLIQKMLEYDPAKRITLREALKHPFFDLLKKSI
test_details: Kinase Profiler, residual kinase activity
Assay type: biochemical
condition_info: CLK1; inhibitor at 500 nM; read-out: percentage of the remaining kinase activity
result_type: remaining activity at 0.5 µM (%)

compound	unit_annotation	remaining activity at 0.5 µM
COC1C(N(C)C(=O)C(N)Cc2ccc(O)cc2)CC2OC1(C)n1c3ccccc3c3c4c(c5c6ccccc6n2c5c31)C(=O)NC4 (stereo not shown) [Compound 5]	%	29.6
COC1C(N(C)C(=O)C(N)CCC(=O)O)CC2OC1(C)n1c3ccccc3c3c4c(c5c6ccccc6n2c5c31)C(=O)NC4 (stereo not shown) [Compound 7]	%	32.3

(1) COC1C(N(C)Cc2ccc(-c3ccccc3)cc2)CC2OC1(C)n1c3ccccc3c3c4c(c5c6ccccc6n2c5c31)C(=O)NC4 (stereo not shown) [Compound 9]
(2) COC1C(N(C)C(=O)C(N)Cc2cn(C(=O)OC(C)(C)C)c3ccccc23)CC2OC1(C)n1c3ccccc3c3c4c(c5c6ccccc6n2c5c31)C(=O)NC4 (stereo not shown) [Compound 2]
(3) COC1C(N(C)C(=O)C(N)Cc2c[nH]cn2)CC2OC1(C)n1c3ccccc3c3c4c(c5c6ccccc6n2c5c31)C(=O)NC4 (stereo not shown) [Compound 1]
Data request: Falling order of remaining activity at 0.5 µM, please. Give the labels in the order specified.
Data returned: 2, 1, 3
(2: 107%, 1: 73.7%, 3: 15.9%)

----------
target_of_assay: LCK (Homo sapiens)
Sequence (P06239 whole entry): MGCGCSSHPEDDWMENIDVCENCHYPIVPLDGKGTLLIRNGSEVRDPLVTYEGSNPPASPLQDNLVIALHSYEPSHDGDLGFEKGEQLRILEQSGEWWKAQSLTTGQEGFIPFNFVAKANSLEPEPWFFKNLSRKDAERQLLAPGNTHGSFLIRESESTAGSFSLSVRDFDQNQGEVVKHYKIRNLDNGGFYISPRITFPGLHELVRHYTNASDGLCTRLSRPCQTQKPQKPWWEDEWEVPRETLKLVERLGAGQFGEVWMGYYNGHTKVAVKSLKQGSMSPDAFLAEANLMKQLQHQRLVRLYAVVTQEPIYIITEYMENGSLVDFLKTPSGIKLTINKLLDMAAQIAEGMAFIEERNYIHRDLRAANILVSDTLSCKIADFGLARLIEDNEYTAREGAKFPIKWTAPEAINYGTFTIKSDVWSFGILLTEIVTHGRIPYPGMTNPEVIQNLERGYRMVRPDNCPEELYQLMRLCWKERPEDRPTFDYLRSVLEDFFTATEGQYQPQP
test_details: Kinase Profiler, residual kinase activity
Format: biochemical
condition_info: LCK; inhibitor at 500 nM; read-out: percentage of the remaining kinase activity
result_type: remaining activity at 0.5 µM (%)

> print(dat)
                                   molecule  quantitative.readout
1  COC1C(N(C)C(=O)C(N)Cc2ccc(O)cc2)CC2OC1(C)n1c3ccccc3c3c4c(c5c6ccccc6n2c5c31)C(=O)NC4 (stereo not shown)                  11.5
2  COC1C(N(C)C(=O)C(N)Cc2c[nH]cn2)CC2OC1(C)n1c3ccccc3c3c4c(c5c6ccccc6n2c5c31)C(=O)NC4 (stereo not shown)                   2.1
3  COC1C(N(C)C(=O)C(N)Cc2ccc(OC(C)(C)C)cc2)CC2OC1(C)n1c3ccccc3c3c4c(c5c6ccccc6n2c5c31)C(=O)NC4 (stereo not shown)                  68.8
4  COC1C(N(C)C(=O)C(N)CCC(=O)OC(C)(C)C)CC2OC1(C)n1c3ccccc3c3c4c(c5c6ccccc6n2c5c31)C(=O)NC4 (stereo not shown)                    44

(I) COC1C(N(C)C(=O)C(N)CCC(=O)O)CC2OC1(C)n1c3ccccc3c3c4c(c5c6ccccc6n2c5c31)C(=O)NC4 (stereo not shown)
(II) COC1C(N(C)Cc2ccc(-c3ccccc3)cc2)CC2OC1(C)n1c3ccccc3c3c4c(c5c6ccccc6n2c5c31)C(=O)NC4 (stereo not shown)
(III) COC1C(N(C)C(=O)C(N)Cc2cn(C(=O)OC(C)(C)C)c3ccccc23)CC2OC1(C)n1c3ccccc3c3c4c(c5c6ccccc6n2c5c31)C(=O)NC4 (stereo not shown)
Data request: Sort the molecules on remaining activity at 0.5 µM; start with the lowest figure. Give the labels in the order specified.
Data returned: I, II, III
(I: 3%, II: 14%, III: 97%)

----------
target_of_assay: FGFR2 (Homo sapiens)
Construct: purchased Research Biology Corp. (http://www.reactionbiology.com)
Sequence (P21802 22-821): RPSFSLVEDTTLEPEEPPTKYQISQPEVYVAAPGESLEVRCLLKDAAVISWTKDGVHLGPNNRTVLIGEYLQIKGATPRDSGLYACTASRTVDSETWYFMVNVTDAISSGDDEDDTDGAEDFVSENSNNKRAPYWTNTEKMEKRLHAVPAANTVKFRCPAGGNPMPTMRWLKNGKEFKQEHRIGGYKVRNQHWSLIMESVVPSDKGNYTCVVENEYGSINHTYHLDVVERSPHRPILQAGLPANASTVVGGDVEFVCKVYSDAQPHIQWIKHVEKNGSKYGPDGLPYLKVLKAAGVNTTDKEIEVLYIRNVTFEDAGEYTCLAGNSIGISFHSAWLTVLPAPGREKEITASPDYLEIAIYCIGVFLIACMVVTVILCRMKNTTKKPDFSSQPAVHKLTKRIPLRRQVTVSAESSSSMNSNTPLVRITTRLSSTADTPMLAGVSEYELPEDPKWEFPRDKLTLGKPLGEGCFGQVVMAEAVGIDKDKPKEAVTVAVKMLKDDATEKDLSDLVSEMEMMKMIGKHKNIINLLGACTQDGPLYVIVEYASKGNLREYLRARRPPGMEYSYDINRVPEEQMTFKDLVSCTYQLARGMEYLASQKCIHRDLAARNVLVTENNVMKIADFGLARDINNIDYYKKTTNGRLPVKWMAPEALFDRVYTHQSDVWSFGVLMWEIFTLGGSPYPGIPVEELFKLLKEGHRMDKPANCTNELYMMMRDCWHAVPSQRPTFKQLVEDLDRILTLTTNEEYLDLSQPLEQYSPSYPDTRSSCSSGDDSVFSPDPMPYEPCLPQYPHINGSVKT
test_details: Kinase Profiler, residual kinase activity
Type: biochemical
condition_info: FGFR2; inhibitor at 500 nM; read-out: percentage of the remaining kinase activity
result_type: remaining activity at 0.5 µM (%)

See these solved cases before continuing.
molecule	remaining activity at 0.5 µM (%)
COC1C(N(C)Cc2ccc(-c3ccccc3)cc2)CC2OC1(C)n1c3ccccc3c3c4c(c5c6ccccc6n2c5c31)C(=O)NC4 (stereo not shown) [Compound 9]	26.5
COC1C(N(C)C(=O)C(N)CCC(=O)OC(C)(C)C)CC2OC1(C)n1c3ccccc3c3c4c(c5c6ccccc6n2c5c31)C(=O)NC4 (stereo not shown) [Compound 6]	26.5
COC1C(N(C)C(=O)C(N)CCC(=O)O)CC2OC1(C)n1c3ccccc3c3c4c(c5c6ccccc6n2c5c31)C(=O)NC4 (stereo not shown) [Compound 7]	9.2

(P) COC1C(N(C)C(=O)C(N)Cc2c[nH]cn2)CC2OC1(C)n1c3ccccc3c3c4c(c5c6ccccc6n2c5c31)C(=O)NC4 (stereo not shown) [Compound 1]
(Q) COC1C(N(C)C(=O)C(N)Cc2ccc(O)cc2)CC2OC1(C)n1c3ccccc3c3c4c(c5c6ccccc6n2c5c31)C(=O)NC4 (stereo not shown) [Compound 5]
(R) COC1C(N(C)C(=O)C(N)Cc2cn(C(=O)OC(C)(C)C)c3ccccc23)CC2OC1(C)n1c3ccccc3c3c4c(c5c6ccccc6n2c5c31)C(=O)NC4 (stereo not shown) [Compound 2]
(S) COC1C(N(C)C(=O)C(N)Cc2ccc(OC(C)(C)C)cc2)CC2OC1(C)n1c3ccccc3c3c4c(c5c6ccccc6n2c5c31)C(=O)NC4 (stereo not shown) [Compound 4]
Data request: Falling order of remaining activity at 0.5 µM, please. Give the labels in the order specified.
Data returned: R, S, Q, P

----------
target_of_assay: PAK4 (Homo sapiens)
Sequence (O96013 whole entry): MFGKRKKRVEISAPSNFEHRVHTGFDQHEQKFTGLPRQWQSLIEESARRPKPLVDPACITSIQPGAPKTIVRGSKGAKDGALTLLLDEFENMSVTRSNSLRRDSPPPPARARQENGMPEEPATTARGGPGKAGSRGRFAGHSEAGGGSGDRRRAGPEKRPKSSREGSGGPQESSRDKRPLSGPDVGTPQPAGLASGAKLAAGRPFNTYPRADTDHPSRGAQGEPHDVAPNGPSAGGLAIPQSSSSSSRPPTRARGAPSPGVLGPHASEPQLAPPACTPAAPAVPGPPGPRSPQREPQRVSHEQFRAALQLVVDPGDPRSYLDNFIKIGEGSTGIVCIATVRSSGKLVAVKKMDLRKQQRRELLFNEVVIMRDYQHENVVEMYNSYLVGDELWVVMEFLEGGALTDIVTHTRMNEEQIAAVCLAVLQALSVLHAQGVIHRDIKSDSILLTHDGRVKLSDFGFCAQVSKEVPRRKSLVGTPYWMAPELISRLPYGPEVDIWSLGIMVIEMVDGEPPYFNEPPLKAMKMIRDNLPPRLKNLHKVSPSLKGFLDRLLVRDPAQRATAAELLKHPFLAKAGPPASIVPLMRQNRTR
test_details: Kinase Profiler, residual kinase activity
Type: biochemical
condition_info: PAK4; inhibitor at 500 nM; read-out: percentage of the remaining kinase activity
result_type: remaining activity at 0.5 µM (%)

> print(dat)
                                   compound  quantitative.readout
1  COC1C(N(C)C(=O)C(N)CCC(=O)O)CC2OC1(C)n1c3ccccc3c3c4c(c5c6ccccc6n2c5c31)C(=O)NC4 (stereo not shown)                  38.4
2  COC1C(N(C)C(=O)C(N)CCC(=O)OC(C)(C)C)CC2OC1(C)n1c3ccccc3c3c4c(c5c6ccccc6n2c5c31)C(=O)NC4 (stereo not shown)                  80.8

(A) COC1C(N(C)C(=O)C(N)Cc2cn(C(=O)OC(C)(C)C)c3ccccc23)CC2OC1(C)n1c3ccccc3c3c4c(c5c6ccccc6n2c5c31)C(=O)NC4 (stereo not shown)
(B) COC1C(N(C)C(=O)C(N)Cc2c[nH]cn2)CC2OC1(C)n1c3ccccc3c3c4c(c5c6ccccc6n2c5c31)C(=O)NC4 (stereo not shown)
Data request: Hi team, can someone confirm which has the larger remaining activity at 0.5 µM: A or B ? Thanks. Write down the label attached to your selection.
Data returned: A

----------
target_of_assay: AXL (Homo sapiens)
Construct: purchased Research Biology Corp. (http://www.reactionbiology.com)
Sequence (P30530 26-894): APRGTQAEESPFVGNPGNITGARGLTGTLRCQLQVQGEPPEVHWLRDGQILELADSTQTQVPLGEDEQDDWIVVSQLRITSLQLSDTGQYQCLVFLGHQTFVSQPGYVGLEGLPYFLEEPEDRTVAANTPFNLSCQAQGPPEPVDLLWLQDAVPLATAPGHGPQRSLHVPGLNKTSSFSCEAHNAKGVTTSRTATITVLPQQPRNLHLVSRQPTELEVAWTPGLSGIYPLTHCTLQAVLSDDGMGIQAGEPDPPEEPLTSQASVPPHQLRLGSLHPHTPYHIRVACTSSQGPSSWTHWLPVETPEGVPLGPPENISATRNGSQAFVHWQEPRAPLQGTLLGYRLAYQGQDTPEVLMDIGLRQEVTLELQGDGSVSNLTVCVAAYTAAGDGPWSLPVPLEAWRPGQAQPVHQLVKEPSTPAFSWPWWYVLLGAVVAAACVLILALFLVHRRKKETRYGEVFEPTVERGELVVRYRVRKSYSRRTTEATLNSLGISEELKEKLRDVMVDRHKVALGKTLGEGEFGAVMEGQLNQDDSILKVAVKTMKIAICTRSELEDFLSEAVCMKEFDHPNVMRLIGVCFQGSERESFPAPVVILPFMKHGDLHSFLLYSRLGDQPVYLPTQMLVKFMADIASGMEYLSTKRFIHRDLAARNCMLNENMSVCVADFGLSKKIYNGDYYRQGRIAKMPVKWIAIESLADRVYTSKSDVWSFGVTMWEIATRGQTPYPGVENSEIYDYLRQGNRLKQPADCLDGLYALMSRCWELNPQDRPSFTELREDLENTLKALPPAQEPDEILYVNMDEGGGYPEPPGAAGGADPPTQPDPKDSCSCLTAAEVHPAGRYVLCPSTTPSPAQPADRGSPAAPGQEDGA
test_details: Kinase Profiler, residual kinase activity
Format: biochemical
condition_info: AXL; inhibitor at 500 nM; read-out: percentage of the remaining kinase activity
result_type: remaining activity at 0.5 µM (%)

> print(dat)
                                   compound  quantitative.readout
1  COC1C(N(C)C(=O)C(N)Cc2c[nH]cn2)CC2OC1(C)n1c3ccccc3c3c4c(c5c6ccccc6n2c5c31)C(=O)NC4 (stereo not shown)                  35.4
2  COC1C(N(C)C(=O)C(N)Cc2ccc(OC(C)(C)C)cc2)CC2OC1(C)n1c3ccccc3c3c4c(c5c6ccccc6n2c5c31)C(=O)NC4 (stereo not shown)                  77.2
3  COC1C(N(C)C(=O)C(N)Cc2ccc(O)cc2)CC2OC1(C)n1c3ccccc3c3c4c(c5c6ccccc6n2c5c31)C(=O)NC4 (stereo not shown)                  60.3

(I) COC1C(N(C)C(=O)C(N)CCC(=O)OC(C)(C)C)CC2OC1(C)n1c3ccccc3c3c4c(c5c6ccccc6n2c5c31)C(=O)NC4 (stereo not shown)
(II) COC1C(N(C)Cc2ccc(-c3ccccc3)cc2)CC2OC1(C)n1c3ccccc3c3c4c(c5c6ccccc6n2c5c31)C(=O)NC4 (stereo not shown)
Data request: Hi team, can someone confirm which has the larger remaining activity at 0.5 µM: I or II ? Thanks. Write down the label attached to your selection.
Data returned: I

(1) COC1C(N(C)C(=O)C(N)Cc2cn(C(=O)OC(C)(C)C)c3ccccc23)CC2OC1(C)n1c3ccccc3c3c4c(c5c6ccccc6n2c5c31)C(=O)NC4 (stereo not shown)
(2) COC1C(N(C)C(=O)C(N)CCC(=O)O)CC2OC1(C)n1c3ccccc3c3c4c(c5c6ccccc6n2c5c31)C(=O)NC4 (stereo not shown)
Data request: Hi team, can someone confirm which has the larger remaining activity at 0.5 µM: 1 or 2 ? Thanks. Write down the label attached to your selection.
Data returned: 1

----------
target_of_assay: RPS6KB1 (Homo sapiens)
Construct: purchased Research Biology Corp. (http://www.reactionbiology.com)
Sequence (P23443 whole entry): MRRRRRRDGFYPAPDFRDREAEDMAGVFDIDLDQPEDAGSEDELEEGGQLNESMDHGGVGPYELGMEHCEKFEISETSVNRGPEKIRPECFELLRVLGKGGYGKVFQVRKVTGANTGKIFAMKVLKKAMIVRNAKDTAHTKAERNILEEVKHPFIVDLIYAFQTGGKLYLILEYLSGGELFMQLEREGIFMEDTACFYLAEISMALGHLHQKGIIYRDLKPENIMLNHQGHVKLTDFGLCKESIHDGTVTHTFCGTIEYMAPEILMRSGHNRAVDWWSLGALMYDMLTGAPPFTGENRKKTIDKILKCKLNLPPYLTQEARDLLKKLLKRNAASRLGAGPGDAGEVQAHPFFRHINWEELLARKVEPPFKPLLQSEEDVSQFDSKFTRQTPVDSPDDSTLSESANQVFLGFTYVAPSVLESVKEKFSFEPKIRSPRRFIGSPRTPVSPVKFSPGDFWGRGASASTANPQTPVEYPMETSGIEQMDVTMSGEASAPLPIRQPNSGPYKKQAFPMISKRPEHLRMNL
test_details: Kinase Profiler, residual kinase activity
Format: biochemical
condition_info: RPS6KB1; inhibitor at 500 nM; read-out: percentage of the remaining kinase activity
result_type: remaining activity at 0.5 µM (%)

compound	unit_annotation	remaining activity at 0.5 µM
COC1C(N(C)C(=O)C(N)Cc2ccc(O)cc2)CC2OC1(C)n1c3ccccc3c3c4c(c5c6ccccc6n2c5c31)C(=O)NC4 (stereo not drawn) [Compound 5]	%	11.8

(1) COC1C(N(C)C(=O)C(N)Cc2cn(C(=O)OC(C)(C)C)c3ccccc23)CC2OC1(C)n1c3ccccc3c3c4c(c5c6ccccc6n2c5c31)C(=O)NC4 (stereo not drawn) [Compound 2]
(2) COC1C(N(C)C(=O)C(N)Cc2ccc(OC(C)(C)C)cc2)CC2OC1(C)n1c3ccccc3c3c4c(c5c6ccccc6n2c5c31)C(=O)NC4 (stereo not drawn) [Compound 4]
Data request: In terms of reported remaining activity at 0.5 µM, does 1 or 2 have the smaller number? Write down the label attached to your selection.
Data returned: 2

These measurements were taken from patent US9738660B2.
